measured_on: DLK (Homo sapiens)
Construct: 10 nM DLK, catalytic domain, Carna Biosiences; purchased Carna Biosciences ('Carna Biosiences' [sic])
Sequence (Q12852 125-366 limits assumed): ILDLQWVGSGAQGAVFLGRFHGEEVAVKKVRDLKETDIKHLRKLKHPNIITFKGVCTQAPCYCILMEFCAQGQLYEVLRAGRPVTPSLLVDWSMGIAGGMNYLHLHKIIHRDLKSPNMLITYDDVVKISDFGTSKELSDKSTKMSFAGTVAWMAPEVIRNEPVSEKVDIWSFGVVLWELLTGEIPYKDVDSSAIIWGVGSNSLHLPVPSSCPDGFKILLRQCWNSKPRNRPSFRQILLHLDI
test_method_notes: DLK biochemical assay (TR-FRET, MKK7 phosphorylation)
experimental_endpoint: IC50 (nM)

// IC50 lookup, key: Nc1nc2c(-c3ccn(CC(F)(F)F)c(=O)c3)cc(-c3cnn(C(c4ccc(C(F)(F)F)nc4)C4CCOCC4)c3)cn2n1 (single isomer, unassigned) [II-176]
1.6

// IC50 lookup, key: CC(C)C(c1ccc(C(F)(F)F)nc1)n1cc(-c2cc(-c3ccc(OC4CC4)nc3)n3nc(N)nc3c2)cn1 (racemic)
7.5

// IC50 lookup, key: Nc1nc2c(-c3cn(CC(F)(F)F)c(=O)cn3)cc(-c3cnn(C(c4ccc(C(F)(F)F)nc4)C4CCOCC4)c3)cn2n1 (stereo not shown) [II-166]
4

// IC50 lookup, key: CCC(c1ccc(C(F)(F)F)nc1)n1cc(-c2cc(-c3ccc(=O)n(C(F)F)c3)n3nc(N)nc3c2)cn1 (stereo not shown) [II-179]
12

// IC50 lookup, key: Nc1nc2c(-c3ccc(=O)n(CC(F)F)c3)cc(-c3cnn(C(c4ccc(C(F)(F)F)nc4)C4CCOCC4)c3)cn2n1 (stereo not shown) [II-156]
1.1

P: Nc1nc2c(-c3cc(CO)ccc3Cl)cc(-c3cnn(C(c4ccc(C(F)(F)F)nc4)C4CCOCC4)c3)cn2n1 (single isomer, unassigned) [II-6]
Q: Nc1nc2c(-c3ccc(=O)n(CC(F)F)c3)cc(-c3cnn(C(c4ccc(C(F)(F)F)nc4)C4CCOCC4)c3)cn2n1 (single isomer, unassigned) [II-158]
Please tell me which of the two, P or Q , has the higher reported IC50 value. Pick one; state its label.
P

a: Nc1nc2cc(-c3cnn(Cc4ccccc4)c3)cc(-c3cnn(C4CCOC4)c3)n2n1 (stereo not shown)
b: CC(C)C(c1ccc(C(F)F)nc1)n1cc(-c2cc(-c3ccc(C4CC4)nc3)n3nc(N)nc3c2)cn1 (single isomer, unassigned) [II-53]
Consider entries a and b . Which has the numerically lower IC50? Pick one; state its label.
a

A: Nc1nc2c(-c3ccc(=O)n(CC(F)F)c3)cc(-c3cnn(C(c4ccc(C(F)(F)F)nc4)C4CCOCC4)c3)cn2n1 (single isomer, unassigned) [II-157]
B: COc1cc(C(C(C)C)n2cc(-c3cc(-c4cnn(CC(F)(F)F)c4)n4nc(N)nc4c3)cn2)ccn1 (single isomer, unassigned) [II-137]
Consider entries A and B . Which has the numerically lower IC50? Pick one; state its label.
A

1: CC(C)C(c1ccc(C(F)(F)F)nc1)n1cc(-c2cc(-c3ccc(C(F)F)nc3)n3nc(N)nc3c2)cn1 (single isomer, unassigned) [II-72]
2: CC[C@@H](c1ccccc1)n1cc(-c2cc(-c3cnn(C)c3)c3nc(N)nn3c2)cn1
Please tell me which of the two, 1 or 2 , has the higher reported IC50 value. Pick one; state its label.
1
(1: 16 nM, 2: 6.5 nM)
